- System: HL-60(TB) leukemia
- MEASUREMENT PROTOCOL: NCI-60 one-dose screen, 48 h
- CONDITION NOTES: 10 µM unless noted
Compounds without any hit were thinned out: in the full panel of roughly 83,000, 20% have a hit. Active and inactive are the calls of the source. Rule for the calls: active = growth percent below 10; inactive = the rest.
I would appreciate it if you answered using one of these outcomes: 1.0 = active, 0.0 = inactive

[in] So what was the verdict on S=c1nc(-c2ccccc2)oc(=NC2CCCCC2)n1C1CCCCC1 in this test?
[out] 1.0

[in] So what was the verdict on COc1ccc(C2CC(c3cccs3)=NN2c2ccc(S(N)(=O)=O)cc2)cc1 (stereo not drawn) in this test?
[out] 0.0

[in] So what was the verdict on O=C(CF)N(O)c1ccc(/C=C/c2ccccc2)cc1 in this test?
[out] 0.0

[in] So what was the verdict on Nc1nc(-c2ccccc2Cl)cc(-c2ccc(Cl)cc2Cl)n1 in this test?
[out] 0.0

[in] So what was the verdict on O=C(/C=C\c1cccc([N+](=O)[O-])c1)c1ccccc1 in this test?
[out] 1.0

[in] So what was the verdict on O=C1OCC2=C1C(c1cccc(C(F)(F)F)c1)c1cc3c(cc1N2CCO)OCO3 (stereo not drawn) in this test?
[out] 1.0

[in] So what was the verdict on COc1c(CCC[P+](c2ccccc2)(c2ccccc2)c2ccccc2)cc2c(c1OC)OCO2 in this test?
[out] 0.0

[in] So what was the verdict on CNC(=O)c1cc(Oc2ccc(NC(=O)Nc3ccc(Cl)c(OC4CCCCC4)c3)c(F)c2)ccn1 in this test?
[out] 0.0

[in] So what was the verdict on Nc1ccccc1-c1ccc(-c2ccc(Cl)cc2)c2c1[nH]c1ccccc12 in this test?
[out] 0.0

[in] So what was the verdict on COC(=O)c1c(C)[nH]c(/C=C2\N=C(c3ccc[nH]3)C=C2OC)c1C in this test?
[out] 1.0

[in] So what was the verdict on Cc1nonc1-c1ccc2c(c1)OCO2 in this test?
[out] 0.0

[in] So what was the verdict on Cc1cccc(/C=N/n2c(-c3ccc(Cl)cc3)nc3c(Br)cc(Br)cc3c2=O)c1 in this test?
[out] 0.0

[in] So what was the verdict on CN1CCN(Cc2ccc(C(=O)Nc3cncc(C#Cc4cnc(N)c5ccccc45)c3)cc2C(F)(F)F)CC1 in this test?
[out] 1.0

[in] So what was the verdict on COc1ccc2c(c1)OC1=C(C(=O)OC1)C2c1cc(OC)c2c(c1)OCO2 (stereo not drawn) in this test?
[out] 1.0

[in] So what was the verdict on COc1cc(C2C3=C(COC3=O)N(CCO)c3cc4c(cc32)OCCO4)cc(OC)c1OC (stereo not drawn) in this test?
[out] 1.0

[in] So what was the verdict on C#CCOc1ccc2ncnc(N3CCC(NC(=O)CCl)CC3)c2c1 in this test?
[out] 0.0

[in] So what was the verdict on COC1OC(C(COC(C)=O)OC(C)=O)C(OC(C)=O)C(OC(C)=O)C1OC(C)=O (stereo not drawn) in this test?
[out] 0.0

[in] So what was the verdict on COc1cc(OC)c(NC(=O)c2cc3ccccc3cc2O)cc1Cl in this test?
[out] 0.0

[in] So what was the verdict on CCCCCN1C=C/C(=C\C(=O)N(C)c2ccc(Oc3ccccc3)cc2)c2ccccc21 in this test?
[out] 0.0

[in] So what was the verdict on N#CC1(C#N)C(c2cccs2)NC(c2cccs2)C1(C#N)C#N (stereo not drawn) in this test?
[out] 0.0

[in] So what was the verdict on COc1cccc(CNc2nnc(C)c(C)n2)c1O in this test?
[out] 0.0

[in] So what was the verdict on O=C1NC(=S)NC(=O)C1=Cc1cn(Cc2ccccn2)c2ccccc12 in this test?
[out] 0.0

[in] So what was the verdict on COC(=O)/C=C1/SC(N2N=C(c3cccs3)CC2c2ccc(F)cc2)=NC1=O (stereo not drawn) in this test?
[out] 1.0

[in] So what was the verdict on C=C(c1ccc(OC)c(/C=C/C(=O)c2ccc3c(c2)OCO3)c1)c1cc(OC)c(OC)c(OC)c1 in this test?
[out] 0.0

[in] So what was the verdict on ClCCOCCn1cnc2c(Cl)nc(Cl)nc21 in this test?
[out] 0.0

[in] So what was the verdict on CCO/C=C1\SC(=S)N(c2cccc(O)c2)C1=O in this test?
[out] 0.0

[in] So what was the verdict on CCc1nc2cc(/C=C/C(=O)NO)c(F)cc2c(=O)n1CCc1ccccc1 in this test?
[out] 1.0

[in] So what was the verdict on CCOc1ccc([C@@H]2[C@@H](Oc3ccccc3)C(=O)N2c2cc(OC)c(OC)c(OC)c2)cc1 in this test?
[out] 1.0

[in] So what was the verdict on Oc1ccc(CCCCCCc2ccc(O)cc2)cc1 in this test?
[out] 0.0

[in] So what was the verdict on COc1ccc(C(=O)c2sc3nc(-c4cccs4)ccc3c2N)cc1OC in this test?
[out] 0.0

[in] So what was the verdict on Oc1c(CN2CCCC2)cc(COCc2ccc(Br)cc2)c2cccnc12 in this test?
[out] 1.0

[in] So what was the verdict on CC(C)N1CC(=O)N2CSCC2C1=O (stereo not drawn) in this test?
[out] 0.0

[in] So what was the verdict on COc1cc(/C=C/C(=O)c2ccc(Cl)cc2)cc(CN2CCCCC2)c1O in this test?
[out] 0.0

[in] So what was the verdict on CCNc1nc(O)c(/C=C2\C=Nc3ncccc32)s1 in this test?
[out] 1.0

[in] So what was the verdict on CC(Cc1cccc2ccccc12)C(N)=O (stereo not drawn) in this test?
[out] 0.0

[in] So what was the verdict on CC(C)N=C(NC(C)C)N1CC1 in this test?
[out] 0.0

[in] So what was the verdict on COc1cc(/C=C2\C(=O)N(CC(O)COc3cc(O)c4c(=O)cc(-c5ccccc5)oc4c3)c3ccccc32)cc(OC)c1O (stereo not drawn) in this test?
[out] 0.0

[in] So what was the verdict on Cc1[nH]nc2ccc3nc(-c4ccc5[nH]ncc5c4)c4c(c3c12)CCCC4 in this test?
[out] 1.0
